Test system Peroxisome proliferator-activated receptor gamma (Homo sapiens, UniProt P37231), pEC50 listed for each of the compounds.
One number for each entry, as −log10 of the molar value.

CCCCN(Cc1ccc(OC(C)(C)C(=O)O)cc1)Cc1nc(-c2cccc(Br)c2)oc1C 5.89
Cc1oc(-c2ccccc2)nc1CNc1ccc(OC(C)(C)C(=O)O)cc1 5.06
Cc1cc(CN(Cc2ccco2)Cc2nc(-c3ccccc3)oc2C)cc(C)c1OC(C)(C)C(=O)O 8.33

Record pEC50 per entry; entries follow.
1. COc1cc(OC(C)(C)C(=O)O)ccc1CN(Cc1ccco1)Cc1nc(-c2ccccc2)oc1C
2. Cc1oc(-c2cccc(Br)c2)nc1CN(Cc1ccccc1)Cc1ccc(OC(C)(C)C(=O)O)cc1
3. Cc1oc(-c2ccccc2)nc1CN(Cc1ccc(OC(C)(C)C(=O)O)c(Cl)c1)Cc1ccco1
4. Cc1oc(-c2ccccc2)nc1CCNc1ccc(OC(C)(C)C(=O)O)cc1

Return:
[6.48, 5.66, 7.15, 4.80]

* * *

Target: Peroxisome proliferator-activated receptor alpha (Homo sapiens, UniProt Q07869)
Sequence (Q07869 whole entry): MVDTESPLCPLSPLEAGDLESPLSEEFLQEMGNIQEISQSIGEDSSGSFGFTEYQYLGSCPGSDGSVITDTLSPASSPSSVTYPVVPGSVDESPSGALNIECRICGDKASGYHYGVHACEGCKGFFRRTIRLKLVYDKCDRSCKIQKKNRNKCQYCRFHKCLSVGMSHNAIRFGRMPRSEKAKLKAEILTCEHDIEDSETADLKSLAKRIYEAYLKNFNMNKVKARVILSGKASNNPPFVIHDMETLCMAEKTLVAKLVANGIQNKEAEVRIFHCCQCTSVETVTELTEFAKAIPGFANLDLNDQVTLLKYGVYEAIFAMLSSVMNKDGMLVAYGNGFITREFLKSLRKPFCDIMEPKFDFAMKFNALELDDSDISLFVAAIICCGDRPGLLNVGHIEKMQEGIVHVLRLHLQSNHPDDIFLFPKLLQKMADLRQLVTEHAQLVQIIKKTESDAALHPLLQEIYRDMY
Assay: Agonist activity at GAL4-fused PPARalpha assessed as transcriptional activity by cell based assay
measure-name: pEC50
One number for each entry, as −log10 of the molar value.

Examples with their reported pEC50 follow.
Cc1oc(-c2ccccc2)nc1CCNc1ccc(OC(C)(C)C(=O)O)cc1 5.28
Cc1oc(-c2ccccc2)nc1CN(Cc1ccc(OC(C)(C)C(=O)O)c(Cl)c1)Cc1ccco1 8.29
COc1cc(OC(C)(C)C(=O)O)ccc1CN(Cc1ccco1)Cc1nc(-c2ccccc2)oc1C 7.49
CCCCN(Cc1ccc(OC(C)(C)C(=O)O)cc1)Cc1nc(-c2cccc(Br)c2)oc1C 6.30
Cc1oc(-c2cccc(Br)c2)nc1CNCc1ccc(OC(C)(C)C(=O)O)cc1 6.17

For every listed record, write down its pEC50.
1. Cc1oc(-c2cccc(Br)c2)nc1CN(Cc1ccc(OC(C)(C)C(=O)O)cc1)Cc1ccco1
2. COc1cc(CN(Cc2ccco2)Cc2nc(-c3ccccc3)oc2C)ccc1OC(C)(C)C(=O)O
3. Cc1oc(-c2ccccc2)nc1CN(Cc1ccc(OC(C)(C)C(=O)O)cc1)Cc1ccco1

Return:
8.09
8.05
7.89

* * *

target: Peroxisome proliferator-activated receptor gamma (Homo sapiens)
Sequence (P37231 whole entry): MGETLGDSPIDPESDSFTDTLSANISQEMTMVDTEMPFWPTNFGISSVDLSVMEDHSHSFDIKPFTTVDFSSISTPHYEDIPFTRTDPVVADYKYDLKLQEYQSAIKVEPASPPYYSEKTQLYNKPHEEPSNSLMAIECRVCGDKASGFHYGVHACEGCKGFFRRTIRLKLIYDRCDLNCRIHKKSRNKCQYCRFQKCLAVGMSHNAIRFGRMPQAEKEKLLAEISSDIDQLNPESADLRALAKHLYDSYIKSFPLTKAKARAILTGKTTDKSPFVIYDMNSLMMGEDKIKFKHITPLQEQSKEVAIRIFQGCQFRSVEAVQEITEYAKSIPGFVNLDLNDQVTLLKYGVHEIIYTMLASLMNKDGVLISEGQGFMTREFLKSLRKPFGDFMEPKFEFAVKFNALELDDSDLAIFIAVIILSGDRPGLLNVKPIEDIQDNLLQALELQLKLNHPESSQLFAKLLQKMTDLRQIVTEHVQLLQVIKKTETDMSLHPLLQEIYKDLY
measure-name: pEC50
Answers are plain numbers, as −log10 of the molar value.

Illustrative cases are given below, each with its answer.
COc1cc(CN(Cc2ccco2)Cc2nc(-c3ccccc3)oc2C)ccc1OC(C)(C)C(=O)O 6.74
Cc1oc(-c2cccc(Br)c2)nc1CNCc1ccc(OC(C)(C)C(=O)O)cc1 5.11

Provide each entry's pEC50 from the list below.
1. Cc1oc(-c2ccccc2)nc1CN(Cc1ccc(OC(C)(C)C(=O)O)cc1)Cc1ccco1
2. Cc1cc(CN(Cc2ccco2)Cc2nc(-c3ccccc3)oc2C)ccc1OC(C)(C)C(=O)O

Return:
1: 6.17; 2: 7.38
